Data origin: patent US9989543B2

Protocol Details: Olmesartan blood concentration/AUC after 7-day versus single-day dosing
Format: in vivo, Korean healthy males
Recorded Conditions: male, human, blood, oral, 40 mg, Time 0 hrs; dosing every 24 hours for 7 days; read-out: Blood concentration (ng/mL)/Compliance-7X
Readout Name: concentration at 0 h (ng/mL)
Report as a plain number; the unit ng/mL is understood.

Endpoint output: concentration at 0 h of `CCCc1nc(C(C)(C)O)c(C(=O)O)n1Cc1ccc(-c2ccccc2-c2nnn[nH]2)cc1` . Value? 54.1

* * *

Protocol Details: Olmesartan blood concentration/AUC after 7-day versus single-day dosing
Format: in vivo, Korean healthy males
Recorded Conditions: male, human, blood, oral, Time 1 hrs; drug taken only one day; read-out: Blood concentration (ng/mL)/Non-Compliance-1X
Readout Name: concentration at 1 h (ng/mL)
Report as a plain number; the unit ng/mL is understood.

Endpoint output: concentration at 1 h of `CCCc1nc(C(C)(C)O)c(C(=O)O)n1Cc1ccc(-c2ccccc2-c2nnn[nH]2)cc1` . Value? 677
